Molecular target: Mitogen-activated protein kinase 7 (Homo sapiens)
Test: Gal4-ERK5 driven luciferase induction – cell-based, HTS, primary screen (AID 1508626);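 also: luciferase driven by Gal4-ERK5 fusion binding five Gal4 sites before minimal TATA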
Conditions: HeLa Gal4-ERK5 transactivation, 18 h, at 5 µM, active compounds read high
Activity calls are given as the source filed them.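 The calls were made as follows: active = luciferase signal above three times the same-plate solvent-only control wells; inactive = the rest.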
Overview of recorded luciferase signal for various compounds

// known answers, use as guide
Prompt line: luciferase signal lookup needed for Nc1nccs1 , thanks.
Response line: 40 AU (inactive)

Prompt line: luciferase signal lookup needed for O=P(O)(O)C(O)(Cc1cccnc1)P(=O)(O)O , thanks.
Response line: 1260 AU (active)

Prompt line: luciferase signal lookup needed for CC(=O)N[C@@H](CS)C(=O)O , thanks.
Response line: 40 AU (inactive)

Prompt line: luciferase signal lookup needed for CC(=O)[C@@]1(O)CC[C@H]2[C@@H]3C[C@H](C)C4=CC(=O)C=C[C@]4(C)[C@@]3(F)[C@@H](O)C[C@@]21C , thanks.
Response line: 76 AU (inactive)

Prompt line: luciferase signal lookup needed for CCCCCCCCCCCCCCCCOP(=O)([O-])OCC[N+](C)(C)C , thanks.
Response line: 132 AU (inactive)

---
Prompt line: luciferase signal lookup needed for NCCCC[C@H](N[C@@H](CCc1ccccc1)C(=O)O)C(=O)N1CCC[C@H]1C(=O)O , thanks.
Response line: 92 AU (inactive)
